# Experiment Description: Solubility determination of solid forms of Compound 1 in solvents (Example 52)
# Format: physicochemical
# Measurement Context: 50 mM CB pH 3
# Excerpt: X-Ray Powder diffraction (XRPD), differential scanning calorimetry (DSC), thermal gravimetric analysis (TGA), and UV-Metric/pH-Metric Titration (SiriusT3) were used to characterize Form I of Compound 1. UPLC was used to evaluate solubility of each material in various vehicles.
Where a name gives a salt, the structure may show the parent alone.

Compound	Measured pH
CCCN(Cc1ccc(-c2csc(N(C)C)n2)cc1)c1cc(C)nc2c(-c3cnc(N(C)C)cc3C)c(C)nn12 [Compound 1-4 (Maleate)]	pH 3.2
CCCN(Cc1ccc(-c2csc(N(C)C)n2)cc1)c1cc(C)nc2c(-c3cnc(N(C)C)cc3C)c(C)nn12 [Compound 1-3 (HCl)]	pH 3.2
